- target: NAMPT (Homo sapiens)
- Construct: His tag; host or cells: E. coli
- Sequence (P43490 whole entry): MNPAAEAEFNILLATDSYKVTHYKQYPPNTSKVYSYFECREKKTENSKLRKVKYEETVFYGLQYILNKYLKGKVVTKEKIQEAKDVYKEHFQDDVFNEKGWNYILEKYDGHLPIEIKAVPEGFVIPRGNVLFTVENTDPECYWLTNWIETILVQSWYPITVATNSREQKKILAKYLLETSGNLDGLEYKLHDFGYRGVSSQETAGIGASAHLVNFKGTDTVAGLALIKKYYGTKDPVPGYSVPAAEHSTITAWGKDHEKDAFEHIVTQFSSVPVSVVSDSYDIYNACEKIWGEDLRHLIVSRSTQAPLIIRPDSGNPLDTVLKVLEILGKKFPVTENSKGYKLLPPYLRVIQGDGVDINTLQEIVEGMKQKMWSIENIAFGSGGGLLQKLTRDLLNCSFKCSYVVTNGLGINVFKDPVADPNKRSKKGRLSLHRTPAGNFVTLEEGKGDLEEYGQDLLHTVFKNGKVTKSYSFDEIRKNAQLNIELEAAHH
- experiment description: Biochemical inhibition assay: NAMPT enzymatic reaction, NMN quantified by mass spectrometry
- run parameters: NAMPT enzymatic assay; read-out: Biochem IC50
pIC50: −log10 of the molar value.
# if value of pIC50 reaches 8, tag yes (1); if it stays below, tag no (0)

Ask | Evaluate `CCNC(=O)c1ccc(S(=O)(=O)c2ccc(CNC(=O)c3cnc4nccn4c3)cc2)cc1` : pIC50 at minimum 8?
Reply | no (0)

Ask | Would you say `CN(C)CCc1ccc(S(=O)(=O)c2ccc(CNC(=O)c3cnc4nccn4c3)cc2)cc1` shows pIC50 at minimum 8?
Reply | yes (1)

Ask | Can `Cn1ncc2c(S(=O)(=O)c3ccc(CNC(=O)c4cnc5nccn5c4)cc3)cccc21` be said to have pIC50 at or above 8?
Reply | yes (1)
